protocol notes: self-splicing fitness, log relative to wild type (ln ratio); higher = more splicing; Tetrahymena group I intron in knt gene, E. coli kanamycin selection, DiMSum; sequences stand for … in CUCUCU…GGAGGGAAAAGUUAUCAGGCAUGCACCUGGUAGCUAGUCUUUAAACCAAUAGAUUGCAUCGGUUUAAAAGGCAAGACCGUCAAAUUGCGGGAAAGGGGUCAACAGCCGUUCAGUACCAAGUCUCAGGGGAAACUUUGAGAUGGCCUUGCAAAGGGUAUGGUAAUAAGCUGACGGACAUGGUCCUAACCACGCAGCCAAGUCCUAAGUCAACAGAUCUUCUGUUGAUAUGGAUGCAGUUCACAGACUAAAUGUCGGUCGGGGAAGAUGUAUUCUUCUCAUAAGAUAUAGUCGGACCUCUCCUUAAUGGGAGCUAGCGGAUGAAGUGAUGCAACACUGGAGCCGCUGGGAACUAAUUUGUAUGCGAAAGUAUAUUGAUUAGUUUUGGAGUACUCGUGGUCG;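 also: selection with 25 µg/mL kanamycin versus none on LB agar overnight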
test context: 37 °C
// reported self-splicing fitness (ln) per item
Lab note: jot down the number only; don't add units.

sequence content	self-splicing fitness (ln)
GUAAAGCAAUAUUACGUAUC	-0.568
GUGUAGCAAUAUUACGGGCC	-1.85
CCACAGCAAUAUUACGAGAG	-1.25
GGGGAGCAAUAUUACGGUGU	-1.37
CUGGAGCAAUAUUACGUAUA	-2.48
AAAAAGCAAUAUUACGUAAC	-1.12
CCGGAGCAAUAUUACGCCAG	-2.31
AGCAAGCAAUAUUACGGGCU	-2.09
GUAUAGCAAUAUUACGCCAU	-1.6
CGAUAGCAAUAUUACGUGCG	-1.04

Quick one: self-splicing fitness (ln) for AUCCAGCAAUAUUACGUAAG ? -0.715

Quick one: self-splicing fitness (ln) for AAGGAGCAAUAUUACGAGAU ? -2.41
